SYSTEM_NAME: UniProt:P23944
Sequence (whole entry): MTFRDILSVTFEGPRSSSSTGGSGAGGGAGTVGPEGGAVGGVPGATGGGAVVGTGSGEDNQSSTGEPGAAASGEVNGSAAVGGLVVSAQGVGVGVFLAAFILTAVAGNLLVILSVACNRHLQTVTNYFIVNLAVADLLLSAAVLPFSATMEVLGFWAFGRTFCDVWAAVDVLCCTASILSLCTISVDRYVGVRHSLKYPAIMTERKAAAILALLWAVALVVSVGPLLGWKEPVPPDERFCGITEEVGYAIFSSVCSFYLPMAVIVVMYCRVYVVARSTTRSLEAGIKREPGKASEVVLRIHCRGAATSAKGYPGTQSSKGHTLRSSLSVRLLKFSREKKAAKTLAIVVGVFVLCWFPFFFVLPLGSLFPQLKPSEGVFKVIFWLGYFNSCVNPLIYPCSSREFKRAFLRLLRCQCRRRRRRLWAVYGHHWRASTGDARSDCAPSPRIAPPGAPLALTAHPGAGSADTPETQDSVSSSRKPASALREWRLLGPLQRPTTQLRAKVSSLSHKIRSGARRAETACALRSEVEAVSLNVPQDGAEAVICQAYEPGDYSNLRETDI
CONDITION_LABEL: Thoracic aorta
Description: Non competitive irreversible antagonism at alpha-1D-adrenergic receptors on isolated thoracic aorta from rat.
MEASURED_QUANTITY: pKb
Hey, just send me the number, nothing else.

Param readout= pKb; system= UniProt:P23944; entry= COc1cc2nc(N3CCN(C(=O)c4ccc(C(F)(F)F)cc4)CC3)nc(N)c2cc1OC ; returns value.
8.31

Param readout= pKb; system= UniProt:P23944; entry= COc1cccc(C(=O)N2CCN(c3nc(N)c4cc(OC)c(OC)cc4n3)CC2)c1 ; returns value.
7.46

Param readout= pKb; system= UniProt:P23944; entry= COc1ccc(C(=O)N2CCN(c3nc(N)c4cc(OC)c(OC)cc4n3)CC2)cc1 ; returns value.
8.98

Param readout= pKb; system= UniProt:P23944; entry= COc1cc2nc(N(C)CCCCCCN(C)C(=O)c3cccc(CNCCCCCCNCCCCCCNCCCCCCNCc4cccc(C(=O)N(C)CCCCCCN(C)c5nc(N)c6cc(OC)c(OC)cc6n5)c4)c3)nc(N)c2cc1OC ; returns value.
9.3

Param readout= pKb; system= UniProt:P23944; entry= COc1cc2nc(N(C)CCCCCCN(C)C(=O)c3ccc(CNCCCCCCNCCCCCCNCCCCCCNCc4ccc(C(=O)N(C)CCCCCCN(C)c5nc(N)c6cc(OC)c(OC)cc6n5)cc4)cc3)nc(N)c2cc1OC ; returns value.
7.9

Param readout= pKb; system= UniProt:P23944; entry= COc1cc2nc(N(C)CCCCCCN(C)C(=O)c3ccccc3CNCCCCCCNCCCCCCNCCCCCCNCc3ccccc3C(=O)N(C)CCCCCCN(C)c3nc(N)c4cc(OC)c(OC)cc4n3)nc(N)c2cc1OC ; returns value.
8.47

Param readout= pKb; system= UniProt:P23944; entry= COc1cc2nc(N3CCN(C(=O)c4ccccc4OC)CC3)nc(N)c2cc1OC ; returns value.
7.76

Param readout= pKb; system= UniProt:P23944; entry= COc1cc2nc(N3CCN(C(=O)c4ccccc4C=O)CC3)nc(N)c2cc1OC ; returns value.
7.56

Param readout= pKb; system= UniProt:P23944; entry= COc1cc2nc(N3CCN(C(=O)c4ccc(CNCCCCCCNCCCCCCNCCCCCCNCc5ccc(C(=O)N6CCN(c7nc(N)c8cc(OC)c(OC)cc8n7)CC6)cc5)cc4)CC3)nc(N)c2cc1OC ; returns value.
7.47

Param readout= pKb; system= UniProt:P23944; entry= COc1cc2nc(N3CCN(C(=O)c4cccc(CNCCCCCCNCCCCCCNCCCCCCNCc5cccc(C(=O)N6CCN(c7nc(N)c8cc(OC)c(OC)cc8n7)CC6)c5)c4)CC3)nc(N)c2cc1OC ; returns value.
7.43

Param readout= pKb; system= UniProt:P23944; entry= COc1cc2nc(N3CCN(C(=O)c4ccc(C)cc4)CC3)nc(N)c2cc1OC ; returns value.
8.91

Param readout= pKb; system= UniProt:P23944; entry= COc1cc2nc(N3CCN(C(=O)c4ccccc4)CC3)nc(N)c2cc1OC ; returns value.
8.86

Param readout= pKb; system= UniProt:P23944; entry= COc1cc2nc(N3CCN(C(=O)c4cccc(C(F)(F)F)c4)CC3)nc(N)c2cc1OC ; returns value.
8.38

Param readout= pKb; system= UniProt:P23944; entry= COc1cc2nc(N3CCN(C(=O)c4ccc(C=O)cc4)CC3)nc(N)c2cc1OC ; returns value.
8.38

Param readout= pKb; system= UniProt:P23944; entry= COc1cc2nc(N3CCN(C(=O)c4cccc(C)c4)CC3)nc(N)c2cc1OC ; returns value.
9.12

Param readout= pKb; system= UniProt:P23944; entry= COc1cc2nc(N3CCN(C(=O)c4cccc(C=O)c4)CC3)nc(N)c2cc1OC ; returns value.
8.07

* * *

SYSTEM_NAME: Alpha-1D adrenergic receptor (Rattus norvegicus)
CONDITION_LABEL: Thoracic aorta
MEASURED_QUANTITY: pKb
Hey, just send me the number, nothing else.

What pKb value was documented for this compound, COc1cc2nc(N3CCN(C(=O)c4ccco4)CC3)nc(N)c2cc1OC ?
9.71

What pKb value was documented for this compound, COc1cc2nc(N3CCN(C(=O)c4ccccc4C)CC3)nc(N)c2cc1OC ?
7.99

What pKb value was documented for this compound, COc1cc2nc(N3CCN(C(=O)c4ccccc4C(F)(F)F)CC3)nc(N)c2cc1OC ?
8.31

What pKb value was documented for this compound, COc1cc2nc(N3CCN(C(=O)c4ccccc4CNCCCCCCNCCCCCCNCCCCCCNCc4ccccc4C(=O)N4CCN(c5nc(N)c6cc(OC)c(OC)cc6n5)CC4)CC3)nc(N)c2cc1OC ?
7.94

Reference for the values: ChEMBL document CHEMBL1134835
